Measured target: 5-LO (Homo sapiens)
Construct: endogenous in cells; host or cells: human PMNL from buffy coats
Sequence (P09917 whole entry): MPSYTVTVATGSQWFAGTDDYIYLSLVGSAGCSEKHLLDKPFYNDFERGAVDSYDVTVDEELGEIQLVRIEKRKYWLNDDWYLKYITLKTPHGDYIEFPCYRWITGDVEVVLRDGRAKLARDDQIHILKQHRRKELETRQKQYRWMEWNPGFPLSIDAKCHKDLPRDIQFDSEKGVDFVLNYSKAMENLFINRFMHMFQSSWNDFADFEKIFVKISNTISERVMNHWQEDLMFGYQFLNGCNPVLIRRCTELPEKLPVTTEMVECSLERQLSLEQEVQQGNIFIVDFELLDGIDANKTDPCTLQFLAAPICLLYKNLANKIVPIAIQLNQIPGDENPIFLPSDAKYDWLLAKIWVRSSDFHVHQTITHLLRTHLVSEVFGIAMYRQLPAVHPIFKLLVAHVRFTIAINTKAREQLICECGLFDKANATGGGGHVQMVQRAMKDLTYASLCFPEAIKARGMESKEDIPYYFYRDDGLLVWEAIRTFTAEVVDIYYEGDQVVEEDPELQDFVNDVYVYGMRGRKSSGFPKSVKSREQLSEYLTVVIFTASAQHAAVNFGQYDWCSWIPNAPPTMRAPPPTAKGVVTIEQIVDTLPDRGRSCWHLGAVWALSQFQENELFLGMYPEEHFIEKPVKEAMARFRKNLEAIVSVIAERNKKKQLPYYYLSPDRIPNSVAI
Assay info: 5-LO product formation (LTB4, 5-HETE) in intact PMNL, A23187 + 20 µM AA
Type: cell-based
Condition label: PMNL (20 µM AA) LTB4 IC50, intact PMNL, 15 min preincubation, A23187 2.5 µM + 20 µM AA; n.i. = no inhibition observed
Binarize IC50 at 8 µM; below is condition met, at or above is condition not met.

Answered examples (4):
Line notation	Category
CCCCCCCCCCC=C(CCCCCC(=O)O)[N+](=O)[O-]	condition met
CCCCCCCCCCCC(=CCCCCC(=O)O)[N+](=O)[O-]	condition not met
CCCCCCCC=C(CCCCCCCCC(=O)O)[N+](=O)[O-]	condition met
CCCCCCC=C(CCCCCCCC(=O)O)[N+](=O)[O-]	condition not met

Threshold test, IC50 < 8 µM: CCCCCCCCC=C(CCCCCCCC(=O)O)[N+](=O)[O-]
condition met

Threshold test, IC50 < 8 µM: CCCCCCCCCCCCCC=C(CCC(=O)O)[N+](=O)[O-]
condition not met

Threshold test, IC50 < 8 µM: CCCCCCCCCCCCC=C(CCCC(=O)O)[N+](=O)[O-]
condition not met

# credit: paper PMC8637440
